# Test system: Escherichia coli TOP10
# Method Notes: shrunken log2 fold change of peptide-encoding DNA abundance (4.5 h post-induction vs induction); higher = less antimicrobial activity (less host growth inhibition)
# Conditions Used: time post-induction: 4.5 h; library: site-saturation at positions 5, 18, 19, 20
# shrunken log2 fold change values compiled below
Hey, just send me the number, nothing else.

Please review the following examples before continuing.
- Sequence Input: "RRIRIRPPRLPRPRPRPPKDPRP"
  Study Target: "Escherichia coli TOP10"
  shrunken log2 fold change: -0.674
- Sequence Input: "RRIRRRPPRLPRPRPRPMTHPRP"
  Study Target: "Escherichia coli TOP10"
  shrunken log2 fold change: -0.17
- Sequence Input: "RRIRCRPPRLPRPRPRPAKTPRP"
  Study Target: "Escherichia coli TOP10"
  shrunken log2 fold change: -0.0664
- Sequence Input: "RRIRWRPPRLPRPRPRPDTIPRP"
  Study Target: "Escherichia coli TOP10"
  shrunken log2 fold change: -0.019
- Sequence Input: "RRIRLRPPRLPRPRPRPGCDPRP"
  Study Target: "Escherichia coli TOP10"
  shrunken log2 fold change: 0.261
- Sequence Input: "RRIRYRPPRLPRPRPRPAGIPRP"
  Study Target: "Escherichia coli TOP10"
  shrunken log2 fold change: -0.359

# query: shrunken log2 fold change of entry "RRIRPRPPRLPRPRPRPKFSPRP"
-0.125

Thanks! And "RRIRHRPPRLPRPRPRPYIVPRP" ?
-0.191

Thanks! And "RRIRARPPRLPRPRPRPDCCPRP" ?
0.172

Thanks! And "RRIRNRPPRLPRPRPRPVGGPRP" ?
0.279

Thanks! And "RRIRMRPPRLPRPRPRPMHGPRP" ?
-0.0683

Thanks! And "RRIRKRPPRLPRPRPRPTQNPRP" ?
1.07

Thanks! And "RRIRQRPPRLPRPRPRPGNSPRP" ?
-0.391

Thanks! And "RRIRVRPPRLPRPRPRPKLMPRP" ?
-0.203

---

# Test system: Escherichia coli TOP10
# Method Notes: shrunken log2 fold change of peptide-encoding DNA abundance (4.5 h post-induction vs induction); higher = less antimicrobial activity (less host growth inhibition)
# Conditions Used: time post-induction: 4.5 h; library: site-saturation at positions 5, 18, 19, 20
Param threshold (-0.01) applies to shrunken log2 fold change; output Fulfilled when value >= threshold, Not fulfilled when value < threshold.

Below are worked cases with known answers.
- Sequence Input: "RRIRLRPPRLPRPRPRPTEGPRP"
  Discrete Label: "Fulfilled"
- Sequence Input: "RRIRPRPPRLPRPRPRPICHPRP"
  Discrete Label: "Not fulfilled"
- Sequence Input: "RRIRTRPPRLPRPRPRPRGNPRP"
  Discrete Label: "Fulfilled"
- Sequence Input: "RRIRSRPPRLPRPRPRPAKLPRP"
  Discrete Label: "Fulfilled"
- Sequence Input: "RRIRTRPPRLPRPRPRPDWMPRP"
  Discrete Label: "Fulfilled"
- Sequence Input: "RRIRSRPPRLPRPRPRPATEPRP"
  Discrete Label: "Fulfilled"
- Sequence Input: "RRIRERPPRLPRPRPRPFHVPRP"
  Discrete Label: "Not fulfilled"
- Sequence Input: "RRIRYRPPRLPRPRPRPLESPRP"
  Discrete Label: "Not fulfilled"
- Sequence Input: "RRIRHRPPRLPRPRPRPCQIPRP"
  Discrete Label: "Not fulfilled"
- Sequence Input: "RRIRSRPPRLPRPRPRPRTSPRP"
  Discrete Label: "Fulfilled"

Hi, just wondering whether "RRIRGRPPRLPRPRPRPMKEPRP" shows shrunken log2 fold change of -0.01 or higher.
Fulfilled

Thanks! And "RRIRNRPPRLPRPRPRPGNNPRP" ?
Not fulfilled

Thanks! And "RRIRQRPPRLPRPRPRPAPCPRP" ?
Fulfilled

Thanks! And "RRIRERPPRLPRPRPRPCSTPRP" ?
Not fulfilled

Thanks! And "RRIRFRPPRLPRPRPRPEWKPRP" ?
Fulfilled

---

# Test system: Escherichia coli TOP10
# Method Notes: shrunken log2 fold change of peptide-encoding DNA abundance (4.5 h post-induction vs induction); higher = less antimicrobial activity (less host growth inhibition)
# Conditions Used: time post-induction: 4.5 h; library: site-saturation at positions 5, 18, 19, 20
# shrunken log2 fold change values compiled below
Hey, just send me the number, nothing else.

Please review the following examples before continuing.
- Sequence Input: "RRIRNRPPRLPRPRPRPPMWPRP"
  Study Target: "Escherichia coli TOP10"
  Reported: -0.115
- Sequence Input: "RRIRIRPPRLPRPRPRPTNPPRP"
  Study Target: "Escherichia coli TOP10"
  Reported: -0.454
- Sequence Input: "RRIRYRPPRLPRPRPRPLVRPRP"
  Study Target: "Escherichia coli TOP10"
  Reported: -0.0244
- Sequence Input: "RRIRSRPPRLPRPRPRPHPWPRP"
  Study Target: "Escherichia coli TOP10"
  Reported: -0.0172
- Sequence Input: "RRIRTRPPRLPRPRPRPNDKPRP"
  Study Target: "Escherichia coli TOP10"
  Reported: -0.605

# query: shrunken log2 fold change of entry "RRIRMRPPRLPRPRPRPQPEPRP"
0.582

Thanks! And "RRIRGRPPRLPRPRPRPAQFPRP" ?
0.199

Thanks! And "RRIRVRPPRLPRPRPRPRVEPRP" ?
0.558

Thanks! And "RRIRGRPPRLPRPRPRPLFNPRP" ?
0.117

Thanks! And "RRIRLRPPRLPRPRPRPKYVPRP" ?
-0.126

Thanks! And "RRIRTRPPRLPRPRPRPPVLPRP" ?
0.0185

Thanks! And "RRIRERPPRLPRPRPRPFAFPRP" ?
-0.0942

Thanks! And "RRIRTRPPRLPRPRPRPAEKPRP" ?
0.0882

Thanks! And "RRIRIRPPRLPRPRPRPSEAPRP" ?
-0.0351

Thanks! And "RRIRERPPRLPRPRPRPSMLPRP" ?
-0.938

Thanks! And "RRIRPRPPRLPRPRPRPVYAPRP" ?
-0.261

Thanks! And "RRIRSRPPRLPRPRPRPVVEPRP" ?
0.13

Thanks! And "RRIRARPPRLPRPRPRPYPRPRP" ?
0.00693

Thanks! And "RRIRRRPPRLPRPRPRPDPWPRP" ?
0.335

Thanks! And "RRIRVRPPRLPRPRPRPLMSPRP" ?
0.0187

Thanks! And "RRIRLRPPRLPRPRPRPQWVPRP" ?
-0.0367

Thanks! And "RRIRFRPPRLPRPRPRPRRPPRP" ?
0.668

Thanks! And "RRIRCRPPRLPRPRPRPVFNPRP" ?
-0.204

Thanks! And "RRIRQRPPRLPRPRPRPPQWPRP" ?
0.525

Thanks! And "RRIRRRPPRLPRPRPRPFATPRP" ?
0.814

Thanks! And "RRIRLRPPRLPRPRPRPYENPRP" ?
-0.0259

Thanks! And "RRIRPRPPRLPRPRPRPDGNPRP" ?
0.0274

---

# Tested on: Escherichia coli TOP10;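 note: peptides expressed intracellularly from a pBAD plasmid library in pooled LB shake-flask culture, induced with 0.3% L-arabinose, DNA abundance read by NGS, three biological replicates, DESeq2 with apeglm shrinkage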
# Method Notes: shrunken log2 fold change of peptide-encoding DNA abundance (4.5 h post-induction vs induction); higher = less antimicrobial activity (less host growth inhibition)
# Conditions Used: time post-induction: 4.5 h; library: site-saturation at positions 5, 18, 19, 20
Param threshold (-0.03) applies to shrunken log2 fold change; output 1 (yes) when value >= threshold, 0 (no) when value < threshold.

- Sequence Input: "RRIRYRPPRLPRPRPRPTLMPRP"
  Study Target: "Escherichia coli TOP10"
  Discrete Label: "0 (no)"
- Sequence Input: "RRIRQRPPRLPRPRPRPITKPRP"
  Study Target: "Escherichia coli TOP10"
  Discrete Label: "1 (yes)"
- Sequence Input: "RRIRIRPPRLPRPRPRPRQKPRP"
  Study Target: "Escherichia coli TOP10"
  Discrete Label: "1 (yes)"
- Sequence Input: "RRIRARPPRLPRPRPRPGTRPRP"
  Study Target: "Escherichia coli TOP10"
  Discrete Label: "1 (yes)"
- Sequence Input: "RRIRMRPPRLPRPRPRPQQSPRP"
  Study Target: "Escherichia coli TOP10"
  Discrete Label: "1 (yes)"

Hi, just wondering whether "RRIRSRPPRLPRPRPRPFMRPRP" shows shrunken log2 fold change of -0.03 or higher.
1 (yes)

Thanks! And "RRIRPRPPRLPRPRPRPRTAPRP" ?
1 (yes)

Thanks! And "RRIRGRPPRLPRPRPRPFHKPRP" ?
0 (no)

Thanks! And "RRIRWRPPRLPRPRPRPWVMPRP" ?
0 (no)

Thanks! And "RRIRRRPPRLPRPRPRPPDFPRP" ?
0 (no)

Thanks! And "RRIRGRPPRLPRPRPRPKDPPRP" ?
1 (yes)

Thanks! And "RRIRYRPPRLPRPRPRPPTSPRP" ?
1 (yes)

Thanks! And "RRIRRRPPRLPRPRPRPDSDPRP" ?
1 (yes)

Thanks! And "RRIRPRPPRLPRPRPRPCCMPRP" ?
0 (no)

Thanks! And "RRIRERPPRLPRPRPRPYWYPRP" ?
0 (no)
